# RUN_DESCRIPTION: Solubility in buffers and water (HPLC of supernatant)
# Format: physicochemical
# APPLIED_CONDITIONS: water, 25°C
METRIC_NAME: solubility at 24 h

(Q) Please give measured solubility at 24 h of the following entry: Cc1c2c(c(=O)n3c1C(=O)NC31CCCCC1)Nc1cc(NC(=O)C3CC3)ncc1C2 [Sulfate polymorph A]
(A) 64.7 µg/mL

---

# RUN_DESCRIPTION: Solubility in buffers and water (HPLC of supernatant)
# Assay type: physicochemical
# APPLIED_CONDITIONS: phosphate buffer solution pH 6.8, 25°C
METRIC_NAME: solubility at 24 h (µg/mL)
Provide only the numeric value, understood in µg/mL.

(Q) Please give measured solubility at 24 h of the following entry: Cc1c2c(c(=O)n3c1C(=O)NC31CCCCC1)Nc1cc(NC(=O)C3CC3)ncc1C2 [Sulfate polymorph A]
(A) 21.6

---

# RUN_DESCRIPTION: Solubility in buffers and water (HPLC of supernatant)
# Format: physicochemical
# APPLIED_CONDITIONS: hydrochloric acid buffer solution pH 1.2, 25°C
METRIC_NAME: solubility at 24 h (µg/mL)
Provide only the numeric value, understood in µg/mL.

(Q) Please give measured solubility at 24 h of the following entry: Cc1c2c(c(=O)n3c1C(=O)NC31CCCCC1)Nc1cc(NC(=O)C3CC3)ncc1C2 [Sulfate polymorph A]
(A) 22.5
